Experiment: qHTS for Inhibitos of Bacillus subtilis Sfp phosphopantetheinyl transferase (PPTase): Chemistry Optimization Followup in B. Subtilis 168
Conditions: B. subtilis 168 growth, BacTiter-Glo luminescence, 5 h; series mostly up to 114 µM
Records with an inconclusive call do not appear. The source made the active and inactive calls. Calls come from the whole dose curve; as a rule, active = well fitted inhibition curve with a large enough effect; inconclusive = small, poorly fitted or top-dose-only effect; inactive = no such curve, though single readings can be large or run the other way.
Outcome codes: 1 = active, -1 = inactive

>>> print(df.to_string())
                               smiles_input  group
0  COc1ccc(NC(=S)N2CCN(c3cccc(C(F)(F)F)c3)CC2)nc1     -1
1  Cc1cc(C)nc(NC(=S)N2CCN(c3ccc(C(F)(F)F)cc3[N+](=O)[O-])CC2)c1      1
2  Cc1cc(C)nc(NC(=S)N2CCN(c3cc(Cl)c(Cl)cc3Cl)CC2)c1      1
